All figures here come from paper PMC7717452.

PROTOCOL_NOTES: Cytotoxicity assay
Type: cell-based, mouse
EXPERIMENTAL_PARAMETERS: mouse, J774 macrophages (ATCC TIB67), non-infected
VALUE_KIND: cytotoxicity at 24 h, 100 µM (%)
Expressed in %, but write only the number.

Answered cases to consult:
CCN(CC)C(=O)CN1C(=O)Cc2c([nH]c3ccc(Br)cc23)-c2ccc(Cl)cc21: 24
O=C(CN1C(=O)Cc2c([nH]c3ccc(Br)cc23)-c2ccc(Cl)cc21)N1CCCC1: 69
NCCNC(=O)CN1C(=O)Cc2c([nH]c3ccc(Br)cc23)-c2ccc(Cl)cc21: 36
CN(C)C(=O)CN1C(=O)Cc2c([nH]c3ccc(Br)cc23)-c2ccc(Cl)cc21: 21
CNC(=O)CN1C(=O)Cc2c([nH]c3ccc(Br)cc23)-c2ccc(Cl)cc21: 93

Quick check: cytotoxicity at 24 h, 100 µM of O=C(CN1C(=O)Cc2c([nH]c3ccc(Br)cc23)-c2ccc(Cl)cc21)NCCN1CCNCC1 ?
24

Same question, CC(C)(C)NC(=O)CN1C(=O)Cc2c([nH]c3ccc(Br)cc23)-c2ccc(Cl)cc21 this time
48

Same question, NCCCCNC(=O)CN1C(=O)Cc2c([nH]c3ccc(Br)cc23)-c2ccc(Cl)cc21 this time
0
